# Assayed system: MAP kinase-activated protein kinase 2 (Homo sapiens) (UniProt P49137)
# Sequence (P49137 whole entry, looked up): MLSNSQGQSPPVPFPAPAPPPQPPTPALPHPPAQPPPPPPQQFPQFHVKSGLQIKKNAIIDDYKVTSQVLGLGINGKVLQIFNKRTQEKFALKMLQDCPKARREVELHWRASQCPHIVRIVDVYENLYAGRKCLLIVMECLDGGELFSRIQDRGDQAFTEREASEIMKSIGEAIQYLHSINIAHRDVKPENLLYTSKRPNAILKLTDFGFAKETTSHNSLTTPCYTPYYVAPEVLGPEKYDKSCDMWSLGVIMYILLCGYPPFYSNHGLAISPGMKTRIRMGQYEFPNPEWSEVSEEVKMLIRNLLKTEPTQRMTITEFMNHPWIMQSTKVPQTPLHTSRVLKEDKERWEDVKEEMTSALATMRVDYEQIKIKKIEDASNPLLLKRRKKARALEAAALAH
# Assay notes: Inhibition of MK2
Measure name: Activity

compound="CCOc1ccc(Nc2c(C)c(NC3CCC(N)CC3)c(C#N)c3ccnn23)cc1 (configuration not stated)" test_result="< 0.2 µM"
compound=c1ccn2nccc2c1 test_result="< 0.2 µM"
compound=Cc1c(N[C@H]2CC[C@H](N)CC2)c(C#N)c2ccnn2c1Nc1ccc(-c2ccccc2)cc1 test_result="< 0.2 µM"
compound=CCOc1ccc(Nc2c(CC(C)C)c(N[C@@H]3CCCNC3)c(C#N)c3ccnn23)cc1 test_result="< 0.2 µM"
compound=COCCOc1ccc(Nc2c(C)c(N[C@@H]3CCCNC3)c(C#N)c3ccnn23)cc1 test_result="< 0.2 µM"
compound="CCOc1ccc(Nc2c(C)c(NC3CCC(NCc4ccccc4)CC3)c(C#N)c3ccnn23)cc1 (configuration not stated)" test_result="0.2 µM"

[in] Given the compound Cc1c(N[C@H]2CC[C@H](N)CC2)c(C#N)c2ccnn2c1NOc1ccccc1 , what is its reported Activity?
[out] 0.2 µM

[in] Another compound to check: Cc1c(N[C@@H]2CCCNC2)c(C#N)c2ccnn2c1Nc1ccccc1
[out] < 0.2 µM

[in] Another compound to check: N#Cc1c(N[C@@H]2CCCNC2)cc(Nc2ccccc2Cl)n2nccc12
[out] 0.2 µM

[in] Another compound to check: CCOc1ccc(Nc2c(C)c(OC3CCC(N)CC3)nc3ccnn23)cc1 (configuration not stated)
[out] 0.2 µM

[in] Another compound to check: NC(=O)n1ncc2ccccc21
[out] < 150 µM

[in] Another compound to check: CCOc1ccc(Nc2c(C)c(N[C@H]3CC[C@H](N)CC3)c(C#N)c3ccnn23)cc1
[out] < 0.2 µM
